Target: human DGAT1 (Homo sapiens)
Sequence (O75907 1-488): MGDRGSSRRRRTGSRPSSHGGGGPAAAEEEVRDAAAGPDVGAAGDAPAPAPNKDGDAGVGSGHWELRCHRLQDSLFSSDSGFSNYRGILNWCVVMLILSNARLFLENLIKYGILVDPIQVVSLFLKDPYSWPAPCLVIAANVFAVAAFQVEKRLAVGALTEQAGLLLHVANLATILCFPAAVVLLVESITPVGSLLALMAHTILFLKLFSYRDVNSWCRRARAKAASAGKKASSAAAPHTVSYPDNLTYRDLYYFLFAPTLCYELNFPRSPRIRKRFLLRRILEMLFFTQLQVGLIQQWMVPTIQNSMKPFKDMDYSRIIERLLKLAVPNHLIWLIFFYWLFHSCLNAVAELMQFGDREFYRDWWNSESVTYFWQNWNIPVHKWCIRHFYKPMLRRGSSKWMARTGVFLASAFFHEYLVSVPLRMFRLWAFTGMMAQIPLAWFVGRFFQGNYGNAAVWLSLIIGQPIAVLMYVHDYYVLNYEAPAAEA
resultType: IC50 (µM)

# compound, IC50 / µM
records = [
    ("Cc1nc(C)c(-c2ccc(-c3ccc(C(C)(C)C(=O)O)cc3Cl)cc2)nc1C(N)=O", 0.021),
    ("Cc1nc(C)c(-c2ccc(-c3ccc(CC(=O)NCCC(=O)O)cc3Cl)cc2)nc1C(N)=O", 0.013),
    ("Cc1cc(-c2ccc(-c3nc(C(N)=O)c(C)nc3C)cc2)c(Cl)cc1CC(=O)O", 0.017),
    ("Cc1nc(C)c(-c2ccc(-c3ccc(CC(=O)N[C@@H](CC(C)C)C(=O)O)cc3Cl)cc2)nc1C(N)=O", 0.011),
    ("Cc1nc(C)c(-c2cc(F)c(-c3ccc(CC(=O)O)cc3Cl)c(F)c2)nc1C(N)=O", 0.0077),
]

I = Cc1nc(C)c(-c2ccc(-c3ccc(CC(=O)O)cc3Cl)c(Cl)c2)nc1C(N)=O
II = Cc1nc(C)c(-c2ccc(-c3ccc([C@H](C)C(=O)O)cc3Cl)cc2)nc1C(N)=O (single isomer, unassigned)
III = Cc1nc(C)c(-c2ccc(-c3ccc(CC(=O)NC(C)(C)C(=O)O)cc3Cl)cc2)nc1C(N)=O
Query: Rank descending by IC50. A ranking is expressed here by listing the labels in the requested order.
Response: II, I, III
(II: 0.012 µM, I: 0.0084 µM, III: 0.0036 µM)

---

pIC50: −log10 of the molar value.
Hi! I'm sharing some pIC50 results obtained with human DGAT1 (Homo sapiens).
resultType: pIC50

# smilesCode, measuredTarget, pIC50
measured = [
    ("Cc1nc(C)c(-c2ccc(-c3ccc(Cc4noc(=O)[nH]4)cc3Cl)cc2)nc1C(N)=O", "human DGAT1 (Homo sapiens)", 7.85),
    ("Cc1nc(C)c(-c2ccc(-c3ccc(CC(=O)N[C@H](C(=O)O)C(C)C)cc3Cl)cc2)nc1C(N)=O", "human DGAT1 (Homo sapiens)", 7.89),
    ("Cc1nc(C)c(-c2ccc(-c3ccc(CC(=O)N(C)C(C)(C)C(=O)O)cc3Cl)cc2)nc1C(N)=O", "human DGAT1 (Homo sapiens)", 7.80),
]
